# tested.on: T1, human histidine-rich glycoprotein (HRG), purified from human plasma (human, UniProt P04196 19-525)
# T1 construct: also called human purified HRG; human purified HRG protein
# T1 sequence: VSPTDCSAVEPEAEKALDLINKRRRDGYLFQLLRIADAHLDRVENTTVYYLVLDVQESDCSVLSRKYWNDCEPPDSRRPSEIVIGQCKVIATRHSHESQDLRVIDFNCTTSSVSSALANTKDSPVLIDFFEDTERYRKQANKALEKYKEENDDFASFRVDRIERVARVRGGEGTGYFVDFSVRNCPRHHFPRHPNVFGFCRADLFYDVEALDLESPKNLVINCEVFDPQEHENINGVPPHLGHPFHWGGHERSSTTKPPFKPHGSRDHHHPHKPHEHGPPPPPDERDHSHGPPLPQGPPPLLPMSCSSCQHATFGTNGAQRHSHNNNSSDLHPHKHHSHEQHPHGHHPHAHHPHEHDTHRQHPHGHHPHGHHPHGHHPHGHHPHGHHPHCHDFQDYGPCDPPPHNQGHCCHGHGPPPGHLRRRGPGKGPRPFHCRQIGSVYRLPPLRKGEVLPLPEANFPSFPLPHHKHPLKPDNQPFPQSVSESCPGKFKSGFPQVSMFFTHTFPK
# assay: sandwich ELISA, HRG captured by solid phase 42-10D
// reported absorbance at 450 nm for each item listed
readout.name: absorbance at 450 nm

[[record]]
binder = "anti-HRG monoclonal antibody 6-12A-10B-9G (antibody, V domains shown, Mouse hybridoma monoclonal; biotin-labeled as detection antibody and for bead immobilisation) VH: EVQLQESGPGLVKPSQSLSLTCTVTGYSITSDYAWNWIRQFPGNKLEWMGYISYSGSTNYNPSLRSRISITRDTSKNQFFLQLISVTTEDTATYYCGSASYRYAWFAYWGQGTLVTVSA VL: DIQVTQTTSSLSASLGDRVTISCRASQDISNYLNWYQQKPDGTVKLLIYYTSRLHSGVPSRFSGSGSGTDYSLTISNLEQEDIATYFCQQGNTLPTFGGGTKLEIK"
readout_name = "absorbance at 450 nm"
val = "< 1 OD"

[[record]]
binder = "anti-HRG monoclonal antibody 67-8A-5F (antibody, V domains shown, Mouse hybridoma monoclonal) VH: EVQLQESGPGLVKPSQSLSLTCTVTGYSITSDYAWNWIRQFPGNKLEWMGYISYSGSTSYNPSLKSRISITRDTSKNQFFLQLNSVTTEDTATYYCASASYRYAWFAYWGQGTLVTVSA VL: DIQMTQTTSSLSASLGDRVTISCRASQDISNYLNWYQQKPDGTVKLLIYYTSRLLSGVPSRFSGSGSGTDYSLTISNLEQEDIATYFCQQGNTLPTFGGGTKLEIK"
readout_name = "absorbance at 450 nm"
val = "< 1 OD"

[[record]]
binder = "anti-HRG monoclonal antibody 50-6C-2A (antibody, V domains shown, Mouse hybridoma monoclonal) VH: EVQLQESGPGLVKPSQSLSLTCTVTGYSITSDYAWNWIRQFPGNKLEWMGYISYSGSTNYNPSLKSRISITRDTSKNQFFLQLNSVTTEDTATYYCASASYRYAWFAYWGQGTLVTVST VL: DIQMTQTTSSLSASLGDRVTISCRASQDISNYLNWYQQKPDGTVKLLIYYTSRLHSGVPSRFSGSGSGTDYSLTISNLEQEDIGTYFCQQGNTLPTFGGGTKLEIK"
readout_name = "absorbance at 450 nm"
val = "< 1 OD"


This collection of values is drawn from patent US20250258178A1.
